- testMethodNotes: chemical genetic growth profiling, strain panel (AID 1159580);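 note: tested at 20 µM; growth read once vehicle control cultures reached saturation at 30 °C; 1 = growth at the plate median or of vehicle wells; lower values mean less growth of the strain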
- measurementConditions: S. cerevisiae deletion strains, growth OD, locus YML124C, strain tub3, hits give low values
Screen size: about 5,500 compounds; about 2,000 (36%) were called active. Inconclusive results (about 18%) are left out. Some of the results follow.
valueKind: normalized growth

These recorded examples may help you get a feel for the data.
>>> readoutvalue("CCC(CCC(C)[C@H]1CCC2C3CC=C4C[C@@H](O)CC[C@]4(C)C3CC[C@@]21C)C(C)C (some centres undefined)")
"0.986 (inactive)"
>>> readoutvalue("Cn1c(=O)c2[nH]c(C3CCCC3)nc2n(C)c1=O")
"0.998 (inactive)"
>>> readoutvalue("CC1(C)O[C@@H]2CC3C4CCC5=CC(=O)C=C[C@]5(C)[C@@]4(F)[C@@H](O)C[C@]3(C)[C@]2(C(=O)CO)O1 (some centres undefined)")
"1.01 (inactive)"
>>> readoutvalue("Cc1cc(=O)c2c(O)c3c(cc2o1)OCC(C)CC3 (centres undefined)")
"0.91 (active)"
>>> readoutvalue("NCCc1cccc(O)c1")
"0.989 (inactive)"
>>> readoutvalue("CC1NC(=O)NC1=O (centres undefined)")
"1.01 (inactive)"
>>> readoutvalue("CCC(/C=C/[C@@H](C)[C@H]1CCC2C3CC=C4C[C@@H](O)CC[C@]4(C)C3CC[C@@]21C)C(C)C (some centres undefined)")
"0.992 (inactive)"
>>> readoutvalue("CC1=CCc2c(cc3oc(C)cc(=O)c3c2O)OC1")
"0.966 (inactive)"

Give measured normalized growth for every item shown.
1. C=C1C2CC[C@@]3(C)[C@H](c4ccoc4)OC(=O)C[C@]13O[C@H]1CC(=O)C(C)(C)[C@H](C(O)C(=O)OC)[C@@]21C (some centres undefined)
2. NCCc1ccc(O)cc1

[reply]
1. 1.01 (inactive)
2. 1 (inactive)
